Listing of recorded composite z-score by entry.
molecular target: Alpha-bungarotoxin (Bungarus multicinctus); assay: alpha-bungarotoxin binders on microarray, profiling panel, artefact control for SMM control protein annotation, biochemical, small-molecule microarray, Alexa647 label, 635/667 nm fluorescence (AID 1117); details: alpha-BTX-A647 binding fluorescence, higher = more signal

>  <molecule>
C#CCNC(=O)[C@H](Cc1ccccc1)NC(=O)CCC(=O)O

>  <composite z-score>
-0.368

$$$$
>  <molecule>
COc1ccc(C(=O)O[C@H]2CC[C@]3(C)C4=C(CCC3C2(C)C)[C@]2(C)CC[C@H]([C@H](C)CCCC(C)C)[C@@]2(C)CC4)cc1 (stereo partly drawn)

>  <composite z-score>
-0.086

$$$$
>  <molecule>
COc1ccc([Si](C)(C)[C@H]2[C@H](CC(=O)N3Cc4ccccc4C[C@H]3CO)O[C@@]3(C(=O)N(Cc4ccc(N5CCC5=O)cc4)c4ccccc43)[C@@H]2C)cc1

>  <composite z-score>
0.548

$$$$
>  <molecule>
CCCC[C@@H]1C[C@H]1[C@@H](NC(=O)c1ccco1)c1ccc(Cl)cc1

>  <composite z-score>
1.33

$$$$
>  <molecule>
COC(=O)[C@@]1(Cc2ccc(OC)cc2)[C@H]2c3cc(C(=O)N(C)C)n(Cc4cccc5ccccc45)c3C[C@H]2CN1C(=O)c1ccccc1

>  <composite z-score>
0.563

$$$$
>  <molecule>
COC(=O)[C@@]1(Cc2ccc(F)cc2)[C@H]2c3cc(C(=O)N(C)C)n(Cc4nc5ccccc5[nH]4)c3C[C@H]2CN1C(=O)c1ccccc1

>  <composite z-score>
0.324

$$$$
>  <molecule>
C=CC[C@@]1(C(N)=O)N=C(c2ccc(OCCCO)cc2)O[C@@H]1c1ccccc1CN=[N+]=[N-]

>  <composite z-score>
0.834

$$$$
>  <molecule>
C=C(COC)/C(=C/C[C@H](OC(=O)c1ccncc1)c1ccc(OCCO)cc1)c1cnc2ccccc2c1

>  <composite z-score>
2.8

$$$$
>  <molecule>
C=CCC(OC(C)=O)[C@@H]1[C@@H](N(Cc2ccc(-c3cccc(C(F)(F)F)c3)o2)C(=O)c2ccc(-c3ccccc3)cc2)c2cc(OCCCO)ccc2N1C(=O)c1ccc(-c2ccccc2)cc1 (stereo partly drawn)

>  <composite z-score>
0.288

$$$$
>  <molecule>
CC(=O)NCCCC[C@@H]1NC(=O)[C@@H]2C[C@H](C(=O)NCCCCCCNC(=O)CS)[C@H](c3cccc(OCCO)c3)N2C1=O

>  <composite z-score>
0.505

$$$$
>  <molecule>
CN1C(=O)C2C=CC(C(O)C3=C[C@H]4C[C@@H](C3)C4(C)C)N(Nc3ccccc3)C2C1=O (stereo partly drawn)

>  <composite z-score>
0.647

$$$$
>  <molecule>
C=CCOC(=O)[C@@H]1[C@H]2C(=O)O[C@H](c3ccccc3)[C@H](c3ccccc3)N2[C@H](c2ccc(OCCOC(=O)[C@@H]3C[C@@H]4C(=O)N[C@@H](CCCC[N+](C)(C)C)C(=O)N4[C@@H]3c3cccc(OCCO)c3)cc2)[C@@]12C(=O)Nc1ccc(I)cc12

>  <composite z-score>
1.59

$$$$
>  <molecule>
C=CCNC(=O)[C@H]1[C@@H]2C(=O)O[C@@H](c3ccccc3)[C@@H](c3ccccc3)N2[C@@H](c2ccccc2OCCO)[C@]12C(=O)Nc1ccc(C#CC3=CCCCC3)cc12

>  <composite z-score>
0.99

$$$$
